B1: CSTF3 (parent)
chain: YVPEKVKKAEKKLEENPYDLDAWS

# Variants of: B1
# methodDescription: protein stability index of a GFP-peptide fusion (GPS, HEK-293T) (PSI 1-6); higher = more stable;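 also: lentivirally expressed fusions sorted by FACS into six bins by GFP to DsRed ratio, PSI derived from sequencing read proportions per bin multiplied by bin number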
# conditionInfo: c terminus: a fixed tail appended
Returns the class for an entry based on its protein stability index. Class ranges: low value: < 2; medium value: ≥ 2 and < 3; high value: ≥ 3

Use the examples below as a reference point.
{"orderedResidues": "YVPEKVKKAEKKLEANPYDLDAWS [E15A]", "category": "high value"}
{"orderedResidues": "YVPEKVKKAEKKLEENPYDLEAWS [D21E]", "category": "high value"}
{"orderedResidues": "YVPEKVKKAAKKLEENPYDLDAWS [E10A]", "category": "low value"}
{"orderedResidues": "YVPEKVKKAEKKLEENPYDLDNWS [A22N]", "category": "medium value"}
{"orderedResidues": "YVPEKMKKAEKKLEENPYDLDAWS [V6M]", "category": "medium value"}
{"orderedResidues": "YVPEKVKKAEKKLEENPRDLDAWS [Y18R]", "category": "medium value"}
{"orderedResidues": "YVWEKVKKAEKKLEENPYDLDAWS [P3W]", "category": "low value"}
{"orderedResidues": "YVPEKVKKAEKKLEWNPYDLDAWS [E15W]", "category": "medium value"}
{"orderedResidues": "YVPEKVYKAEKKLEENPYDLDAWS [K7Y]", "category": "medium value"}
{"orderedResidues": "YVPEFVKKAEKKLEENPYDLDAWS [K5F]", "category": "medium value"}

Consider YVPEKVKKAEKKLAENPYDLDAWS [E14A] . To which protein stability index class does it belong?
medium value

Consider YVPIKVKKAEKKLEENPYDLDAWS [E4I] . To which protein stability index class does it belong?
medium value
